Assay: amyloid nucleation score (Sup35N fusion, yeast selection) (log enrichment); library NNK3; higher = more nucleation; inactive = no reads after selection;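 also: zero at mode of non-aggregating sequences after 7 days selection at 30°C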
readout type: amyloid nucleation score

Here's what some known entries look like.
TSDIAPFRDLLIASA inactive
YLLLDYGTRSFLYDRYRYIR 0.067
VYLWKYRPQYPRVA inactive
GHTRDFKGSFDFPLNFY inactive
TVRWDVSLMFMRPMMYGEPK -0.13
SYISNP inactive

Notebook: `TRSWCGDMYSHC` , amyloid nucleation score read as inactive

Notebook: `EIRKQHCCHS` , amyloid nucleation score read as inactive

Notebook: `YTPGLPSDFN` , amyloid nucleation score read as inactive

Notebook: `ASLPVLPSNPDKSEGAKGHE` , amyloid nucleation score read as -0.681

Notebook: `HNVFST` , amyloid nucleation score read as inactive

Notebook: `AYIFIWWKGANKFVSFNKII` , amyloid nucleation score read as 0.684

Notebook: `MGSGIFCDLFHGVMYCMQVR` , amyloid nucleation score read as inactive

Notebook: `SRVWTISWLNDGVGGRTQAE` , amyloid nucleation score read as inactive

Notebook: `RIKAYVGLFTVSWGSWGRRR` , amyloid nucleation score read as 1.44

Notebook: `WFMRFTLSLVTGLVNGSAWS` , amyloid nucleation score read as inactive

Notebook: `HTGLVILSVISPVTCPYWRK` , amyloid nucleation score read as 0.329

Notebook: `VTKGWQGLGGLMGGEVCPWV` , amyloid nucleation score read as inactive
